- SYSTEM_TESTED: Streptavidin (Streptomyces avidinii) (UniProt P22629)
- Sequence (P22629 whole entry, looked up): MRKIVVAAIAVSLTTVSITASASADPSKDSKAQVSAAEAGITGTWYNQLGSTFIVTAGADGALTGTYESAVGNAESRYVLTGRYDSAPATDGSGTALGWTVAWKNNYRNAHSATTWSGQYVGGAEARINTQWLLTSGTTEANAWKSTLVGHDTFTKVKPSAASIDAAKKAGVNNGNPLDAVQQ
- ASSAY_REMARKS: streptavidin binders on small-molecule microarray, primary screen, artefact control for SMM compound annotation, biophysical, 635/667 nm fluorescence (AID 1147);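 note: signal reflects streptavidin binding to arrayed compounds as a control protein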
- PROTOCOL_CONDITIONS: streptavidin binding, higher = more signal
READOUT_KIND: composite z-score
Please state the value as a number alone, without comment.

Please review the following examples before continuing.
{"columns": ["COMPOUND_STRING", "TEST_RESULT"],
 "data": [
  ["CC(C)(C)N1C(=O)[C@H]2[C@H]3[C@H](O)[C@H](O)CC(=NOCc4ccccc4)[C@H]3CC[C@H]2C1=O", 1],
  ["Cc1cc2c(c(=O)o1)[C@@H](O)[C@H]1O[C@H]1C2=O", 0.361],
  ["CCc1cc2c(nc1CC)CCN(CCC(C)=NO[C@H](C)c1cn([C@H](CO)Cc3ccccc3)nn1)C2", 0.656],
  ["COC(=O)[C@@H]1CC[C@H](C)[C@@H](c2ccc(C)cc2)N1C(=O)c1ccc(C=NO[C@@H](C)c2cn([C@H](CO)Cc3ccccc3)nn2)cc1", 0.279],
  ["CC(C)CON=C1C[C@@H](O)[C@@H](O)[C@@H]2[C@@H]3C(=O)N(c4ccc(F)cc4F)C(=O)[C@@H]3CC[C@H]12", 0.9]
]}

Sample `C=CC[C@@H]1C=C[C@H](ON=C(C)CCC(=O)OC[C@H]2O[C@H](C#Cc3ccccc3)C=C[C@@H]2Oc2ccc(C)cc2)[C@@H](CO)O1` — what was its composite z-score?
0.635

Sample `C#CCCCON=C1C[C@@H](O)[C@@H](O)[C@@H]2[C@@H]3C(=O)N(C(C)(C)C)C(=O)[C@@H]3CC[C@@H]12` — what was its composite z-score?
0.0462

====

- ASSAY_REMARKS: FRG1 promoter luciferase signal modulators, primary screen, FRG1 inhibition for FSHD, cell-based, C2C12 myotubes, firefly/Renilla luciferase, luminescence (AID 1084)
- PROTOCOL_CONDITIONS: higher = more signal, called active from +8 up or from −8 down
READOUT_KIND: z-score
Please state the value as a number alone, without comment.

Sample `COC(=O)CC=C[C@@H](C)[C@@H](C=NO[C@@H](C)c1cc(-c2c(C)cc(C)cc2C)no1)NS(=O)(=O)c1ccc(C)cc1` — what was its z-score?
0.295

====

- Test system: Neuregulin-1 EGF-like domain
- ASSAY_REMARKS: binders of neuregulin-1 EGF-like domain, primary screen, biochemical, small-molecule microarray, 635 nm fluorescence (AID 1081);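 note: binding of the protein to compounds printed on small-molecule microarray slides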
- PROTOCOL_CONDITIONS: small-molecule microarray binding, higher = more signal
READOUT_KIND: composite z-score

Please review the following examples before continuing.
{"columns": ["COMPOUND_STRING", "SYSTEM_TESTED", "composite z-score"],
 "data": [
  ["COC(=O)[C@@H]1CC[C@H](C)[C@@H](c2ccc(C)cc2)N1C(=O)c1ccc(C=NOC[C@@H](C)[C@H](OCc2ccccc2)C(C)C)cc1", "Neuregulin-1 EGF-like domain", 1],
  ["O=C1[C@H]2[C@H]3[C@H](O)[C@H](O)CC(=NOCc4ccccc4)[C@H]3CC[C@H]2C(=O)N1Cc1ccc2c(c1)OCO2", "Neuregulin-1 EGF-like domain", 0.278],
  ["Cc1ccc(S(=O)(=O)OC[C@H]2CN3[C@H](c4ccc(Br)cc4)[C@@H](C)CC[C@H]3C(=O)O2)cc1", "Neuregulin-1 EGF-like domain", 1.01]
]}

Sample `COC(=O)NCC=Cc1nc(CCCO)co1` — what was its composite z-score?
0.414
